test: clinical; settings: human, in vivo, po
OBSERVABLE: Tmax

INPUT: Read the entry COc1cc(F)c(F)c(Nc2ccc(I)cc2F)c1NS(=O)(=O)C1(C[C@H](O)CO)CC1 [refametinib] and write its reported Tmax.
OUTPUT: ~3 h

---

experiment: Plasma pharmacokinetics of refametinib, metabolite M17 and sorafenib; details: human, in vivo, Geometric mean maximum drug concentration (Cmax), multiple dose, day 1 of course 2, at the MTD, non-HCC patients
OBSERVABLE: Cmax (µg/mL)
Report the figure in µg/mL without appending any unit label.

INPUT: Read the entry COc1cc(F)c(F)c(Nc2ccc(I)cc2F)c1NS(=O)(=O)C1(C[C@H](O)CO)CC1 and write its reported Cmax.
OUTPUT: 0.674

---

test: clinical; conditions: human, in vivo, Plasma half-life (geometric mean)
OBSERVABLE: half-life

INPUT: Read the entry COc1cc(F)c(F)c(Nc2ccc(I)cc2F)c1NS(=O)(=O)C1(C[C@H](O)CO)CC1 and write its reported half-life.
OUTPUT: ~960 min
